biological target: ROCK1 (Homo sapiens)
Sequence (Q13464 whole entry, species assumed): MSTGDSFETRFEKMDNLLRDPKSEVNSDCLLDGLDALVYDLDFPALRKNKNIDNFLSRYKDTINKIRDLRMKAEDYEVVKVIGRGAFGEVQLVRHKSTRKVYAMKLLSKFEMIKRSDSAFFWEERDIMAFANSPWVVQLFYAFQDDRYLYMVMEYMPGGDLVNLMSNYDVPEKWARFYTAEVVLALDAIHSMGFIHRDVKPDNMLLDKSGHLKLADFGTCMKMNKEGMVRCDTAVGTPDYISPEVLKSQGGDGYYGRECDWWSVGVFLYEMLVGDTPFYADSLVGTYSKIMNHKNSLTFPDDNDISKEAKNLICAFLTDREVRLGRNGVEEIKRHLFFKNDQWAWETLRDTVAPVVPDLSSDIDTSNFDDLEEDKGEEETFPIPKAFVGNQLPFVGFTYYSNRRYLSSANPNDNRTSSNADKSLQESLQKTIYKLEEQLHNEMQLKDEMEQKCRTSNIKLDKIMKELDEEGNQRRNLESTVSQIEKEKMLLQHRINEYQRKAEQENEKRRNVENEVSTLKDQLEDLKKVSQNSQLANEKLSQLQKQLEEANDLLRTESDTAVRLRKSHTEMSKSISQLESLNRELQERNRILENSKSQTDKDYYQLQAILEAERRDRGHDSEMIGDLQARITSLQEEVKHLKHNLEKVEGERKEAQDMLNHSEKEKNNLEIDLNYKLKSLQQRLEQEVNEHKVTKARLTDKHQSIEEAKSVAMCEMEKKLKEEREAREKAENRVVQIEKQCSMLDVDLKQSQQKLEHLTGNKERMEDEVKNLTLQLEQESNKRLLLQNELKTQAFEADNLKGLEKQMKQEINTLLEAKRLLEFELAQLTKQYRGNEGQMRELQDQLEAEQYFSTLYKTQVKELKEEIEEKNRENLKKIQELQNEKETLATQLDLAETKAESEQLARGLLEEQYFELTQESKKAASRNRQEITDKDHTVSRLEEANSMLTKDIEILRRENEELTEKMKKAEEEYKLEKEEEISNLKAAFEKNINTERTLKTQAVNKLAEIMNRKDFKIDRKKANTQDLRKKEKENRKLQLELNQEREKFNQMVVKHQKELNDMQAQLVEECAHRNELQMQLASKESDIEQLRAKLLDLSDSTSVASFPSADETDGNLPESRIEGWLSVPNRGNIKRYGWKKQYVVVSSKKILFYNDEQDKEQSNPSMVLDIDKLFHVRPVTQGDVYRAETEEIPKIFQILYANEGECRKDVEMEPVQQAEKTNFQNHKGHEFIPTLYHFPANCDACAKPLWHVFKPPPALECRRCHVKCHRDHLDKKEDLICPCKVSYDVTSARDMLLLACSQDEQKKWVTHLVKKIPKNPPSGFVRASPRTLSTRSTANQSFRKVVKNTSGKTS
Consider the following compounds and their measured IC50 readings.

[[record]]
compound = "CC1=C(C(=O)Nc2ccc3[nH]ncc3c2)C(c2ccc(F)c(C(=O)NCc3ccccn3)c2)NC(=O)N1 (centres unmarked) [Compound 12h]"
tested_system = "ROCK1 (Homo sapiens)"
readout_value = "~10 nM"


Now look at this entry.
What value of IC50 has been recorded for this entry: CC1=C(C(=O)Nc2ccc3[nH]ncc3c2)C(c2ccc(F)c(C(=O)NCc3nccc4ccccc34)c2)NC(=O)N1 (centres unmarked) [Compound 12k]
~10 nM
